shrunken log2 fold change overview
test system: Escherichia coli TOP10; experiment: shrunken log2 fold change of peptide-encoding DNA abundance (4.5 h post-induction vs induction); higher = less antimicrobial activity (less host growth inhibition); settings: time post-induction: 4.5 h; library: site-saturation at positions 5, 18, 19, 20
Please respond with just the number, no unit label.

Here's what some known entries look like.
[
  {
    "sequence text": "RRIRFRPPRLPRPRPRPDISPRP",
    "study system": "Escherichia coli TOP10",
    "result number": -0.216
  },
  {
    "sequence text": "RRIRYRPPRLPRPRPRPNPYPRP",
    "study system": "Escherichia coli TOP10",
    "result number": -0.0428
  },
  {
    "sequence text": "RRIRNRPPRLPRPRPRPERIPRP",
    "study system": "Escherichia coli TOP10",
    "result number": -0.00936
  },
  {
    "sequence text": "RRIRFRPPRLPRPRPRPEFHPRP",
    "study system": "Escherichia coli TOP10",
    "result number": -0.342
  },
  {
    "sequence text": "RRIRWRPPRLPRPRPRPPCQPRP",
    "study system": "Escherichia coli TOP10",
    "result number": 0.0989
  }
]

Data request, read-out shrunken log2 fold change, for RRIRLRPPRLPRPRPRPSWNPRP -0.342

Data request, read-out shrunken log2 fold change, for RRIRSRPPRLPRPRPRPGQGPRP 0.0895

Data request, read-out shrunken log2 fold change, for RRIRQRPPRLPRPRPRPGLFPRP -0.176

Data request, read-out shrunken log2 fold change, for RRIRYRPPRLPRPRPRPNGVPRP 0.0238

Data request, read-out shrunken log2 fold change, for RRIRERPPRLPRPRPRPPKNPRP 0.284

Data request, read-out shrunken log2 fold change, for RRIRCRPPRLPRPRPRPTQEPRP 0.121

Data request, read-out shrunken log2 fold change, for RRIRHRPPRLPRPRPRPKMCPRP -0.00195

Data request, read-out shrunken log2 fold change, for RRIRNRPPRLPRPRPRPCEEPRP -0.0104

Data request, read-out shrunken log2 fold change, for RRIRHRPPRLPRPRPRPPFSPRP -0.166

Data request, read-out shrunken log2 fold change, for RRIRWRPPRLPRPRPRPFRDPRP -0.196

Data request, read-out shrunken log2 fold change, for RRIRYRPPRLPRPRPRPTSKPRP 0.902

Data request, read-out shrunken log2 fold change, for RRIRSRPPRLPRPRPRPNCHPRP -0.316

Data request, read-out shrunken log2 fold change, for RRIRTRPPRLPRPRPRPITQPRP -0.168

====

test system: Escherichia coli TOP10; experiment: shrunken log2 fold change of peptide-encoding DNA abundance (4.5 h post-induction vs induction); higher = less antimicrobial activity (less host growth inhibition); details: time post-induction: 4.5 h; library: site-saturation at positions 5, 18, 19, 20;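 further: peptides expressed intracellularly from a pBAD plasmid library in pooled LB shake-flask culture, induced with 0.3% L-arabinose, DNA abundance read by NGS, three biological replicates, DESeq2 with apeglm shrinkage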
param class (str): category from shrunken log2 fold change; see ranges lowest: < -0.2; middle: ≥ -0.2 and < 0.02; highest: ≥ 0.02

See these solved cases before continuing.
[
  {
    "sequence text": "RRIRPRPPRLPRPRPRPHHCPRP",
    "label class": "lowest"
  },
  {
    "sequence text": "RRIRHRPPRLPRPRPRPDASPRP",
    "label class": "highest"
  },
  {
    "sequence text": "RRIRIRPPRLPRPRPRPSGIPRP",
    "label class": "lowest"
  }
]

Quick check: band for RRIRGRPPRLPRPRPRPATVPRP highest

Quick check: band for RRIRERPPRLPRPRPRPQNWPRP middle

Quick check: band for RRIRGRPPRLPRPRPRPQICPRP highest

Quick check: band for RRIRKRPPRLPRPRPRPKWYPRP lowest

Quick check: band for RRIRFRPPRLPRPRPRPIESPRP middle

Quick check: band for RRIRQRPPRLPRPRPRPLEQPRP middle

Quick check: band for RRIRVRPPRLPRPRPRPYELPRP lowest

Quick check: band for RRIRMRPPRLPRPRPRPIRRPRP middle

Quick check: band for RRIRVRPPRLPRPRPRPAPMPRP highest

Quick check: band for RRIRERPPRLPRPRPRPSNAPRP middle
